assay_target: Eukaryotic translation initiation factor 4E (Mus musculus, UniProt P63073)
Sequence (P63073 whole entry): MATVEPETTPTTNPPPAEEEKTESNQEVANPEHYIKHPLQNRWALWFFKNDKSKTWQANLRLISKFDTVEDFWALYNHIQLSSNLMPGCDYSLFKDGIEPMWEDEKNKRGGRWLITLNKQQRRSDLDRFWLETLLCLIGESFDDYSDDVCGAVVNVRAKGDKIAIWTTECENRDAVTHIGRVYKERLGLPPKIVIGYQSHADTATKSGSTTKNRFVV
experimental_details: blockers of eIF4G binding by eIF4E – biochemical, TR-FRET, dose response (AID 855);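 note: potency for disrupting eIF4E binding to eIF4GI seen as loss of FRET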
Type: functional
The source made the active and inactive calls.
One label from this list, please: active, inactive

Study these solved cases before continuing.
[[record]]
molecule = "Cc1ccc(NC(=O)CN2C(=O)N/C(=C/c3cccn3-c3ccc(C(=O)O)cc3)C2=O)cc1"
assay_target = "Eukaryotic translation initiation factor 4E (Mus musculus, UniProt P63073)"
assigned_class = "active"

[[record]]
molecule = "Cc1c(Cl)cccc1NS(=O)(=O)c1ccc2c(c1)C1C=CCC1C(c1ccc(C(=O)O)cc1)N2 (stereo not given)"
assay_target = "Eukaryotic translation initiation factor 4E (Mus musculus, UniProt P63073)"
assigned_class = "active"

[[record]]
molecule = "O=C(CSc1ccsc1[N+](=O)[O-])Nc1cc(F)ccc1F"
assay_target = "Eukaryotic translation initiation factor 4E (Mus musculus, UniProt P63073)"
assigned_class = "active"

[[record]]
molecule = "O=C(O)CSc1nnc(COc2cccc3cccnc23)n1-c1cccc(C(F)(F)F)c1"
assay_target = "Eukaryotic translation initiation factor 4E (Mus musculus, UniProt P63073)"
assigned_class = "inactive"


Okay, next one:
# outcome recorded in this test, key = COC(=O)c1ccc(CSc2nnc(S)s2)o1
inactive

---

Listed molecules paired with reported EC50
System: BJ
experimental_details: BJ-TERT-LT-ST fibroblast viability loss – cell-based, RAS-independent, luminescence, dose response (AID 1935);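 note: BJ fibroblasts immortalized with TERT plus LT and ST oncogenes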
Format: functional
test_context: Homo sapiens
Active and inactive are the calls of the source.

[[record]]
compound_structure_string = "Cc1ccc(NC(=S)N/N=C/c2c(Cl)cccc2Cl)c(C)c1"
assay_target = "BJ"
measurement_label = "EC50"
assay_value = "3.99 µM (inconclusive)"

[[record]]
compound_structure_string = "COc1ccccc1N1CCN(c2ccc(-c3ccccc3)nn2)CC1"
assay_target = "BJ"
measurement_label = "EC50"
assay_value = "1.93 µM (active)"

[[record]]
compound_structure_string = "Cc1ccc(CSC(Nc2ccc(F)cc2)=C(C#N)C#N)cc1"
assay_target = "BJ"
measurement_label = "EC50"
assay_value = "> 75 µM (not active)"

[[record]]
compound_structure_string = "O=C(/C=C/c1cccc2ccccc12)c1ccncc1"
assay_target = "BJ"
measurement_label = "EC50"
assay_value = "> 75 µM (inconclusive)"


Summary for this molecule, Cc1ccc(Nc2c(-c3ccccn3)nc3cc(C)ccn23)cc1 : EC50 is 7.83 µM (inconclusive)

Summary for this molecule, C(=N\Nc1nc2ccccc2[nH]1)/c1ccc2ncccc2c1 : EC50 is 30.7 µM (active)

---

assay_target: DNA dC->dU-editing enzyme APOBEC-3A (Homo sapiens, UniProt P31941)
Sequence (P31941 whole entry): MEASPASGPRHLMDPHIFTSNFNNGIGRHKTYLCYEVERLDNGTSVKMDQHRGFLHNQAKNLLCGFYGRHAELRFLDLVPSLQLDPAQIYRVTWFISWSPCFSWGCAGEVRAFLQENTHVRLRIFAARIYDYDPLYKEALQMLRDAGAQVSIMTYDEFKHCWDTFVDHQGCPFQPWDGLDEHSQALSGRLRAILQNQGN
experimental_details: Dose Response confirmation of small molecule APOBEC3A DNA Deaminase Inhibitors via a fluorescence-based single-stranded DNA deaminase assay. [Related pubchem assays (depositor defined):AID493011, AID493024]
Type: functional
Active and inactive are the calls of the source.
Listed compounds paired with reported IC50

In the examples that follow, each entry is paired with its recorded IC50.
[[record]]
compound = "O=C(/C=C/c1ccco1)OCC(=O)N1CCCCC1"
measurement_label = "IC50"
assay_value = "19.5 µM (active)"

[[record]]
compound = "CCN1CCN(c2ccc(S(=O)(=O)N3CCOCC3)cc2NC(=O)/C=C/c2ccc([N+](=O)[O-])cc2)CC1"
measurement_label = "IC50"
assay_value = "8.67 µM (active)"

[[record]]
compound = "CSc1ccccc1NC(=O)CN(C)CC(=O)c1[nH]c(C)c(C(C)=O)c1C"
measurement_label = "IC50"
assay_value = "6.83 µM (active)"

[[record]]
compound = "CC[n+]1ccc(/C=C/c2c[nH]c3ccccc23)cc1"
measurement_label = "IC50"
assay_value = "5.16 µM (active)"


Record for CC1(CC(=O)N/N=C/c2cc([N+](=O)[O-])c(O)cc2O)OCCO1 under target or system DNA dC->dU-editing enzyme APOBEC-3A (Homo sapiens, UniProt P31941): IC50 reported as 19.3 µM (active)

Record for COc1ccc(N(CC(=O)N2CCCCCC2)S(=O)(=O)c2ccccc2[N+](=O)[O-])c(OC)c1 under target or system DNA dC->dU-editing enzyme APOBEC-3A (Homo sapiens, UniProt P31941): IC50 reported as 5.63 µM (active)

Record for CC(C)(C)C1CCC(OC(=O)C[N+]2(C)CCCC2)CC1 (configuration not stated) under target or system DNA dC->dU-editing enzyme APOBEC-3A (Homo sapiens, UniProt P31941): IC50 reported as 2.96 µM (active)
